Entry source: ChEMBL document CHEMBL3421632

# RUN DESCRIPTION: Stability in Ile-de-France ewe serum assessed as intact compound level at 50 uM incubated for 6 hrs by HPLC method
# Format: ADME, cell-free, Ovis aries
# MEASUREMENT PARAMETERS: female, sheep, read-out: Stability
*1 amine or outer side, *2 acyl side, *3 side chain or, on linkers, in order; H or OH if unused. Where a SMILES comes first, the peptide text is derived from it. [ ]: non-standard residue; d: D form. X1 = O=C(Cn1cc([C@H](Cc2ccccc2)N[*:1])nn1)[*:2]
MEASURED ENDPOINT: remaining at 6 h, 50 µM (%)
Give your result in % as a bare value.

Entry CC(=O)N[C@@H](Cc1ccc(O)cc1)C(=O)N[C@@H](CC(N)=O)C(=O)N[C@@H](Cc1c[nH]c2ccccc12)C(=O)N[C@@H](CC(N)=O)C(=O)N[C@@H](CO)C(=O)N[C@@H](Cc1ccccc1)c1cn(CC(=O)N[C@@H](CC(C)C)C(=O)N[C@@H](CCCNC(=N)N)C(=O)N[C@@H](Cc2ccc(O)cc2)C(N)=O)nn1 (Ac-YNWNS[X1]LRY-NH2) , remaining at 6 h, 50 µM reported as 61.4
